- Experimental target: T1, human immunoglobulin E (hIgE) (human, UniProt P01854-1 1-428)
- T1 construct: also called human IgE; Native IgE (Abcam)
- T1 sequence (P01854 whole entry): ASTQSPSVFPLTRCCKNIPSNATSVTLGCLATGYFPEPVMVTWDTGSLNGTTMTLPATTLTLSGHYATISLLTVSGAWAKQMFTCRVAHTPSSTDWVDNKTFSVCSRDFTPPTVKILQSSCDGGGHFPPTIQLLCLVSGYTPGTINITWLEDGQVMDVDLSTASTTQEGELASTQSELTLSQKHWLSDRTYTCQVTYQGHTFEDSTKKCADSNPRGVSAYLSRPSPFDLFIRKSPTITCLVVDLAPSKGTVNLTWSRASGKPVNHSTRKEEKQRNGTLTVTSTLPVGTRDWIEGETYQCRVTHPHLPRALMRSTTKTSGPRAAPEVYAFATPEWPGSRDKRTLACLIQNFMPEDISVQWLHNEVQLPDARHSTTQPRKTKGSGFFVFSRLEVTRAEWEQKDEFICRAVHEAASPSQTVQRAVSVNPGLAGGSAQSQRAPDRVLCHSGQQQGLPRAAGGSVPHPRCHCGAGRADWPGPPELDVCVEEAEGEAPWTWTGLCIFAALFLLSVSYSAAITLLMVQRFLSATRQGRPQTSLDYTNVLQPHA
- Assay: SPR (Biacore), pH 6.0
Readout: kon (M⁻¹ s⁻¹)
Quick reminder: number only, in M⁻¹ s⁻¹, skip the unit.

For this binder ( OmaVH15G55HW100b - VL3D28H (antibody, V domains shown, also called OmaVH15G55HW100b VL3D25H) VH: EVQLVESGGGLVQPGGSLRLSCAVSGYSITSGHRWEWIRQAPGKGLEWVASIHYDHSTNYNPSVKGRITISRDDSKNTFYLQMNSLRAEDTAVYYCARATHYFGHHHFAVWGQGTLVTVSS VL: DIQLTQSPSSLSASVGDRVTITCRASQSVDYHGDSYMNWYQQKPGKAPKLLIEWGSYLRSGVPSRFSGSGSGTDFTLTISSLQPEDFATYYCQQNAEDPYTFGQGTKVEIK ), measured kon is 123000
